- ASSAY_TARGET: Torsin-1A (Homo sapiens) (UniProt O14656)
- Sequence (O14656 whole entry, looked up): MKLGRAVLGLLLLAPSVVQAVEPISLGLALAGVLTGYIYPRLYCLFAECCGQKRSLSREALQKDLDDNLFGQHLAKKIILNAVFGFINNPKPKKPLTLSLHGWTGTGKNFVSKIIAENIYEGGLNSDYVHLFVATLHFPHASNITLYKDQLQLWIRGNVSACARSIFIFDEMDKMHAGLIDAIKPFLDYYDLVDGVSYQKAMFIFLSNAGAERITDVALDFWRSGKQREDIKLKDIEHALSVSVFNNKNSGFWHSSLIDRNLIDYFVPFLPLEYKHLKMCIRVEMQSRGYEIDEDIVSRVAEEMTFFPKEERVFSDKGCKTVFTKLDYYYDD
- ASSAY_OVERVIEW: torsin A binders from cell lysate, primary screen, small-molecule microarray, wild-type, 635/667 nm (AID 1149)
- CONDITIONS_USED: COS7 hTOR1A-WT lysate, 635 nm fluorescence, higher = more signal
PARAMETER: composite z-score

What measured composite z-score goes with CO[C@@H]1COC(=O)[C@H](COCc2ccccc2)NC(=O)CC=C[C@@H](C)[C@H](OC)COC(=O)[C@H](COCc2ccccc2)NC(=O)CC=C[C@H]1C ?
0.692

// query composite z-score value for entry CC(C)[Si]1(C(C)C)O[C@@H](c2ccccc2)c2cc(C3CC3)nc(-c3ccc(Oc4ccccc4)cc3)c21
-0.617

Looking for the measured composite z-score of O=C1c2ccccc2[C@](Cc2ccccc2I)(C(=O)NCc2ccccc2)[C@H](c2ccc(CO)cc2)N1Cc1ccccc1C(F)(F)F , can you help?
-0.635

Which composite z-score value is on record for C=CCC(OC(C)=O)[C@@H]1[C@@H](N(Cc2cccc3ccccc23)C(=O)c2ccc(C)cc2)c2cc(OCCCO)ccc2N1C(=O)c1ccc(-c2ccccc2)cc1 (some centres undefined) ?
0.0621

----------
- ASSAY_OVERVIEW: P. aeruginosa biofilm formation inhibitors, primary screen, strain PAO1, LB-PBS medium, absorbance 600 nm (AID 1176); also: test concentration not given here
- CONDITIONS_USED: P. aeruginosa PAO1 growth/biofilm, A600, 12 h; higher = more signal
PARAMETER: z-score
Give the figure only, with no unit attached.

Which z-score is reported for this compound? COc1ccc(C(O)C2C=CC3C(=O)N(C)C(=O)C3N2N2CCCCC2)cc1OCc1ccccc1 (configuration not stated)
0.779

Consider the compound shown here: C=CCN1C(=O)[C@@]2(Cc3ccccc3)N=C(c3ccc(OCCCO)cc3)O[C@H]2c2ccccc21 What is its recorded z-score?
1.39

z-score for O=C(NCc1ccccc1)[C@@]1(Cc2ccccc2)COC(c2ccc(OCCCO)cc2)=N1 ?
0.162

Requested read-out: z-score. Entry: COc1ccc([Si](C)(C)[C@@H]2[C@@H](CCO)O[C@]3(C(=O)N(Cc4ccc(NC(=O)[C@H](C)O)cc4)c4ccccc43)[C@H]2C)cc1
-0.717

// lookup z-score for CCCNC(=O)[C@@H]1c2ccccc2C(=O)N(C2CCCCC2)[C@H]1c1ccc(CO)cc1
-0.329

Fill blank: measured z-score of the compound C=CC[C@@]1(C(=O)NCC(O)CO)N=C(c2ccc(OCCCO)cc2)O[C@@H]1c1ccccc1CN=[N+]=[N-] (some centres not stated) is ____.
0.385

Form field: reported z-score of O=C1C[C@@](C(=O)NC2CC2)(c2ccc([N+](=O)[O-])cc2)[C@@H](c2ccc(CO)cc2I)N1CC12CC3CC(CC(C3)C1)C2
1.2

Fill in the blank: the reported z-score of COC(=O)C(CC#Cc1ccc2c(c1)[C@]1(C(=O)N2)[C@H](C(=O)N2CCCCCCC2)[C@H]2C(=O)O[C@H](c3ccccc3)[C@H](c3ccccc3)N2[C@@H]1c1ccc(O)cc1)C(=O)OC is ____.
0.473

Would you kindly share the measured z-score for CCOC(=O)C[C@H]1[C@H](OC(=O)c2cc3ccccc3oc2=O)[C@@H](NC(=O)C2CCCCC2)c2cc(OCCCO)ccc2N1C(=O)c1ccc2ccccc2n1 ?
-0.0339

Which z-score is listed for COCCOC(=O)N1C(=O)[C@@]2(c3cc(C#CC4=CCCCC4)ccc31)[C@H](C(=O)NC[C@H](O)c1ccccc1)[C@H]1C(=O)O[C@H](c3ccccc3)[C@H](c3ccccc3)N1[C@@H]2c1ccc(OCCO)cc1 ?
2.83

Give its z-score value. Item: O=C1O[C@H](c2ccccc2)[C@H](c2ccccc2)N2[C@H]1[C@@H](C(=O)Nc1nc3ccccc3s1)[C@]1(C(=O)Nc3ccc(C#CC4(O)CCCCCC4)cc31)[C@H]2c1ccc(O)cc1
1.44

Can you share its z-score? I mean this compound: COCCOC(=O)N1C(=O)[C@@]2(c3cc(C#CCC(C(=O)OC)C(=O)OC)ccc31)[C@H](c1ccccc1OCCO)N1[C@H](c3ccccc3)[C@H](c3ccccc3)OC(=O)[C@H]1[C@@H]2C(=O)N1CCCCCCC1
1.48

Entry CC(C)[Si](OCC[C@H]1O[C@]2(C(=O)N(Cc3ccccc3)c3ccccc32)[C@@H](C)[C@@H]1[Si](C)(C)O)(C(C)C)C(C)C has what z-score?
-0.66

I have this compound here, O=C1C2C=CC(C(O)C(c3ccccc3)c3ccccc3)N(Nc3ccc([N+](=O)[O-])cc3)C2C(=O)N1c1ccccc1 (configuration not stated) , and I need its recorded z-score.
0.89

Which z-score is listed for O=C(NCC(F)(F)F)[C@@H]1c2ccccc2C(=O)N(Cc2ccccc2Cl)[C@H]1c1ccc(CO)cc1 ?
0.277

I'd like to know its z-score. The compound in question is CCOC(=O)C[C@H]1[C@H](OC(=O)Cc2ccc3c(c2)OCO3)[C@@H](NC(=O)c2ccc3ccccc3c2)c2cc(OCCCO)ccc2N1C(=O)Cc1ccc(OC)cc1
0.0642

Which z-score reading was recorded for the compound COC(=O)Cn1c(C(=O)N2CCCC2)cc2c1C[C@H]1CN(C(=O)c3ccccc3)[C@@](Cc3ccc(OC)cc3)(C(=O)OC)[C@@H]21 ?
0.259

Report z-score for COC(=O)C[C@H]1O[C@]2(C(=O)N(Cc3ccccc3)c3ccc(I)cc32)[C@@H](C)[C@@H]1[Si](C)(C)c1ccc(OC)cc1 please.
-0.435

For COc1ccc([Si](C)(C)[C@@H]2[C@@H](CC(=O)N(CCO)Cc3ccccc3)O[C@]3(C(=O)N(Cc4cccc(N5CCC5=O)c4)c4ccccc43)[C@H]2C)cc1 , what is its reported z-score?
0.708

Returns the measured z-score for the input compound. Input: CC(C)(C)OC(=O)CC[C@]1(C(=O)N2CCCCC2)N=C(c2ccc(OCCCO)cc2)O[C@H]1c1ccccc1
0.0937

Can you look up the measured z-score of O=C/C=C/c1ccc(/C=C/c2ccccc2)cc1 for me?
0.668

Value lookup for z-score; key = CC(C)C[C@@H]1NC(=O)[C@H]2C[C@@H](C(=O)NCCCCCC[N+](C)(C)C)[C@@H](c3ccc(O)cc3)N2C1=O
-1.04

# query: z-score of entry COc1ccc(CCN2C(=O)[C@@]3(c4ccc([N+](=O)[O-])cc4)CC(=O)N(CC45CC6CC(CC(C6)C4)C5)[C@@H]3c3ccc(CO)cc32)cc1
0.298

So what's the measured z-score for this one? COC(=O)[C@@]1(Cc2ccccc2)[C@H]2c3cc(C(=O)N4CCCC4)n(CCN4CNCC4=O)c3C[C@H]2CN1C(=O)c1ccccc1
-0.167

Returns the measured z-score for the input compound. Input: CC[C@@H]1C=C(C(=O)O)[C@H](c2ccccc2)N1S(=O)(=O)c1ccc([N+](=O)[O-])cc1
-0.461

May I ask what z-score has been recorded for N#Cc1ccc(NN2C(C(O)CCc3ccccc3)C=CC3C(=O)N(c4ccccc4)C(=O)C32)cc1 (configuration not stated) ?
1.01

Look up z-score: COc1cc2c(cc1OC)CN(C(=O)[C@H]1[C@@H]3C(=O)O[C@@H](c4ccccc4)[C@@H](c4ccccc4)N3[C@@H](c3ccccc3OCCO)[C@]13C(=O)Nc1ccc(C#CC4(O)CCCCCC4)cc13)CC2
2.63

----------
- ASSAY_OVERVIEW: binders from COS7 lysate, DM2A8 probe, primary screen, torsin A project, cell lysate, small-molecule microarray, fluorescence 635/667 (AID 1065)
- CONDITIONS_USED: higher = more signal, COS7 lysate expressing mutant human TOR1A
PARAMETER: composite z-score

Report composite z-score for COc1ccc(NN2C(C(O)c3cc(OC)c(OC)c(OC)c3)C=CC3C(=O)N(C4CCCCC4)C(=O)C32)cc1 (centres undefined) please.
-0.194

Param item = O=C1OCCC/C=C\[C@H]2OC34C=CCN(CCN5CCOCC5)C(=O)[C@H]3N(CCCCCO)C(=O)[C@@H]4C12 (some centres undefined) ; retrieve measured composite z-score.
-0.658

Entry under review: CC(C)[C@H]1NC(=O)[C@@]23C(=O)N[C@@H](Cc4ccccc4)C2[C@H](C)[C@@]2(C)O[C@H]2C3/C=C/C/C=C\CNC(=O)[C@H](C)NC1=O (some centres undefined) . Reported composite z-score?
-0.663

Can you share its composite z-score? I mean this compound: COc1ccc([Si](C)(C)[C@@H]2[C@@H](CCO)O[C@]3(C(=O)N(Cc4ccc(NC(=O)[C@H](C)O)cc4)c4ccccc43)[C@H]2C)cc1
0.395

----------
Provide the recorded z-score for the entries that follow.
- ASSAY_OVERVIEW: A549 lung cancer cell viability effects, profiling panel, resazurin fluorescence, 24 h, PK04 Diversity Set (AID 1171); also: test concentration not given here
- CONDITIONS_USED: higher = more signal, called active from +8 up or from −8 down
The source made the active and inactive calls.

Find the recorded z-score belonging to C=CC[C@]1(C(=O)O)N=C(c2ccc(OCCCO)cc2)O[C@H]1c1ccccc1 and report it.
0.692 (inactive)

// lookup z-score for COC(=O)[C@@]1(Cc2ccc(OC)cc2)[C@H]2c3cc(C(=O)N(C)C)n(Cc4ccc(C)c(F)c4F)c3C[C@H]2CN1C(=O)c1ccccc1
1.41 (inactive)

Bench note: what z-score did CO[C@H]1COC(=O)[C@H](C)NC(=O)CC=C[C@@H](C)[C@H](NS(=O)(=O)c2ccc(C)cc2)COC(=O)CC=C[C@@H]1C show?
0.317 (inactive)

# lookup: z-score of CCN1C(C)=C(C(=O)OC)[C@@H](c2ccccc2)N2C(=O)[C@@]3(C(=O)OC)O[C@@]12[C@@H]1C(=O)N(c2ccccc2)C(=O)[C@@H]13
0.677 (inactive)

Can you share its z-score? I mean this compound: COc1cc([C@@H]2N[C@H](C(=O)O)Cc3c2[nH]c2ccccc32)cc(OC)c1OC
0.455 (inactive)

z-score for C[N+](C)(C)CCCCNC(=O)[C@@H]1C[C@@H]2C(=O)N3CCC[C@H]3C(=O)N2[C@@H]1c1cccc(OCCO)c1 ?
-0.141 (inactive)

What value of z-score has been reported for the following compound? CN(C)CCCC[C@@H]1NC(=O)[C@@H]2C[C@H](C(=O)O)[C@H](c3ccc(O)cc3)N2C1=O
-0.385 (inactive)

I am curious: what z-score value has been reported for C=CCN1C(=O)[C@@]2(Cc3ccccc3)N=C(c3ccc(OCCCO)cc3)O[C@H]2c2ccccc21 ?
-1.36 (inactive)
